target: hPPARgamma (Homo sapiens, UniProt P37231); construct: 10x-histidine tag (N); made in house; host or cells: E. coli; assay: hPPARgamma Ligand Binding Assay; settings: PPARg Ki, competition with [3H]-BRL 49,653, room temperature 2 hrs
Sequence (P37231 223-503): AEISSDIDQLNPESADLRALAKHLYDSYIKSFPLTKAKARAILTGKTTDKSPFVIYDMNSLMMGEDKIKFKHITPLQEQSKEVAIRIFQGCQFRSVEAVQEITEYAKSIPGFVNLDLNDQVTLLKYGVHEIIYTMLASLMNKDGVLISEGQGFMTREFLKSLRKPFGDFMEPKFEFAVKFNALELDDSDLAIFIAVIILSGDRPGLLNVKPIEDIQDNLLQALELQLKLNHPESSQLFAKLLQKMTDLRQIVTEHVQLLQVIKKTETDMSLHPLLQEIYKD
pKi: −log10 of the molar value. Counter-ions that a name gives are not always drawn.

[
  {
    "compound": "COc1ccc(C(=O)c2ccccc2NC(Cc2ccc(OCCN(C)c3nc4ccccc4o3)cc2)C(=O)O)cc1 (stereo not drawn) [Example 110]",
    "pKi": 7.30
  },
  {
    "compound": "CC(=CC(=O)c1ccccc1)NC(Cc1ccc(OCCN(C)c2ccccn2)cc1)C(=O)O (stereo not drawn) [Example 14]",
    "pKi": 7.10
  },
  {
    "compound": "CN(CCOc1ccc(CC(Nc2ccccc2C(=O)c2ccccc2C(F)(F)F)C(=O)O)cc1)c1nc2ccccc2o1 (stereo not drawn) [Example 77]",
    "pKi": 6.81
  },
  {
    "compound": "Cc1oc(-c2ccccc2)nc1CCOc1ccc(C[C@H](Nc2ccccc2C(=O)c2ccc[n+]([O-])c2)C(=O)O)cc1 [Example 59]",
    "pKi": 7.00
  },
  {
    "compound": "Cc1oc(-c2ccccc2)nc1CCOc1ccc(C[C@H](Nc2ccccc2C(=O)NCCN)C(=O)O)cc1 [Example 89, hydrochloride]",
    "pKi": 5.52
  },
  {
    "compound": "Cc1ccccc1C(=O)c1ccccc1NC(Cc1ccc(OCCN(C)c2nc3ccccc3o2)cc1)C(=O)O (stereo not drawn) [Example 112]",
    "pKi": 6.89
  },
  {
    "compound": "CN(CCOc1ccc(CC(Nc2ccccc2C(=O)C2CCCCC2)C(=O)O)cc1)c1nc2ccccc2o1 (stereo not drawn) [Example 24]",
    "pKi": 7.52
  },
  {
    "compound": "COC(=O)c1ccccc1N[C@@H](Cc1ccc(OCCSc2ccc(Cl)cc2)cc1)C(=O)O [Example 46]",
    "pKi": 6.12
  },
  {
    "compound": "Cc1oc(-c2ccccc2)nc1CCOc1ccc(CC(Nc2ccccc2C(=O)c2cccc(NS(C)(=O)=O)c2)C(=O)O)cc1 (stereo not drawn) [Example 95]",
    "pKi": 6.42
  },
  {
    "compound": "Cc1oc(-c2ccccc2)nc1CCOc1ccc(CC(Nc2ccccc2C(=O)c2cccc(N)c2)C(=O)O)cc1 (stereo not drawn) [Example 94]",
    "pKi": 7.40
  },
  {
    "compound": "COC(=O)c1ccccc1N[C@@H](Cc1ccc(OCCc2ccc(Cl)cc2)cc1)C(=O)O [Example 106]",
    "pKi": 6.85
  },
  {
    "compound": "CN(CCOc1ccc(CC(Nc2ccc(Cl)cc2C(=O)c2ccccc2)C(=O)O)cc1)c1nc2ccccc2o1 (stereo not drawn) [Example 20]",
    "pKi": 6.74
  },
  {
    "compound": "CN(CCOc1ccc(CC(Nc2cc(F)ccc2C(=O)C2CCCCC2)C(=O)O)cc1)c1nc2ccccc2o1 (stereo not drawn) [Example 50]",
    "pKi": 6.41
  },
  {
    "compound": "O=C(c1ccccc1)c1ccccc1N[C@@H](Cc1ccc(OC[C@@H]2CCCN2c2ccccn2)cc1)C(=O)O [Example 61]",
    "pKi": 8.00
  },
  {
    "compound": "Cc1oc(-c2ccccc2)nc1CCOc1ccc(CC(Nc2ccccc2C(=O)c2cccc(OCC(N)=O)c2)C(=O)O)cc1 (stereo not drawn) [Example 98]",
    "pKi": 8.00
  }
]
